# Tested on: CCRF-CEM
# experiment-summary: Antitumor activity against human CCRF-CEM cells assessed as growth inhibition at 10 uM relative to control
# Assay type: functional
# experimental-setup: read-out: GI

structure-smiles	inhibition of growth at 10 µM
N#Cc1c(-c2ccc(Cl)cc2)nc(N/N=C/c2ccc[nH]2)nc1N1CCOCC1	79.2%
CSc1nc(Cl)c(C#N)c(-c2ccc(Cl)cc2)n1	26.1%
N#Cc1c(-c2ccc(Cl)cc2)nc(N/N=C/c2cccc(O)c2)nc1N1CCOCC1	63.8%
CSc1nc(-c2ccc(Cl)cc2)c(C#N)c(N2CCOCC2)n1	< 1%
N#Cc1c(-c2ccc(Cl)cc2)nc(NN2C(=O)CCC2=O)nc1N1CCOCC1	< 1%
N#Cc1c(-c2ccc(Cl)cc2)nc(N/N=C/c2cccc([N+](=O)[O-])c2)nc1N1CCOCC1	25.3%
CC1=NN(c2nc(-c3ccc(Cl)cc3)c(C#N)c(N3CCOCC3)n2)C(=O)C1	14.1%
N#Cc1c(-c2ccc(Cl)cc2)nc(NN2C(=O)c3ccccc3C2=O)nc1N1CCOCC1	< 1%
N#Cc1c(-c2ccc(Cl)cc2)nc(N/N=C/c2ccco2)nc1N1CCOCC1	11.3%
CSc1nc(O)c(C#N)c(-c2ccc(Cl)cc2)n1	< 1%
Cc1cc(C)n(-c2nc(-c3ccc(Cl)cc3)c(C#N)c(N3CCOCC3)n2)n1	< 1%
N#Cc1c(-c2ccc(Cl)cc2)nc(N/N=C2/C(=O)Nc3ccccc32)nc1N1CCOCC1	< 1%
N#Cc1c(-c2ccc(Cl)cc2)nc(N/N=C/c2cccc(Br)c2)nc1N1CCOCC1	49.7%
N#Cc1c(-c2ccc(Cl)cc2)nc(NN)nc1N1CCOCC1	< 1%
N#Cc1c(-c2ccc(Cl)cc2)[nH]c(=S)[nH]c1=O	< 1%
N#Cc1c(-c2ccc(Cl)cc2)nc(N/N=C/c2cccc(Cl)c2)nc1N1CCOCC1	27.5%
N#Cc1c(-c2ccc(Cl)cc2)nc(N/N=C2/C(=O)Nc3ccc(Cl)cc32)nc1N1CCOCC1	< 1%
N#Cc1c(-c2ccc(Cl)cc2)nc(N/N=C2/C(=O)Nc3ccc(Br)cc32)nc1N1CCOCC1	< 1%
N#Cc1c(-c2ccc(Cl)cc2)nc(N2NC(=O)CC2=N)nc1N1CCOCC1	< 1%
COc1cc(/C=N/Nc2nc(-c3ccc(Cl)cc3)c(C#N)c(N3CCOCC3)n2)cc(OC)c1OC	58.1%
N#Cc1c(-c2ccc(Cl)cc2)nc(N/N=C/c2cccc(F)c2)nc1N1CCOCC1	19.6%

These measurements were taken from ChEMBL document CHEMBL5376013.
